Reference for the values: ChEMBL document CHEMBL1150133

- ASSAY OVERVIEW: Cytotoxicity against human HeLa cells after 2 days by MTT assay
- Type: cell-based
MEASUREMENT LABEL: CC50 at 48 h

COMPOUND	RESULT
CO[C@H]1[C@H](O[C@H]2[C@H](O[C@@H](CC[C@@H](C)[C@H]3C[C@@H](O)[C@@H]4[C@]3(C)CC[C@@H]3[C@@]5(C)CC[C@H](O)[C@H](O)[C@@H]5[C@@H](OS(=O)(=O)[O-])C[C@]34O)C(C)C)O[C@H](CO)[C@@H]2O)OC[C@@H](OC)[C@@H]1O.[Na+] [CERTONARDOSIDE G]	> 100 µg/mL
CO[C@H]1[C@H](O[C@H]2[C@H](OC[C@@H](C)[C@H](C)/C=C/[C@@H](C)[C@H]3C[C@@H](O)[C@@H]4[C@]3(C)CC[C@@H]3[C@@]5(C)CC[C@H](O)[C@H](O)[C@@H]5[C@@H](O)C[C@]34O)OC[C@@H](O)[C@@H]2OS(=O)(=O)[O-])OC[C@@H](O)[C@@H]1O.[Na+] [CERTONARDOSIDE D]	> 100 µg/mL
CO[C@H]1[C@H](O[C@H]2[C@H](O[C@@H](CC[C@@H](C)[C@H]3C[C@@H](O)[C@H]4[C@@H]5C[C@H](O)[C@H]6[C@@H](O)[C@@H](O)CC[C@]6(C)[C@H]5CC[C@@]43C)C(C)C)O[C@H](CO)[C@@H]2O)OC[C@@H](OC)[C@@H]1O [CERTONARDOSIDE I]	59.9 µg/mL

====

- ASSAY OVERVIEW: Cytotoxicity against human MT4 cells after 5 days by MTT assay
- Format: cell-based
MEASUREMENT LABEL: log10(CC50 at 120 h) (log10 of the value in µg/mL)

COMPOUND	MEASUREMENT LABEL	RESULT NUMBER
CO[C@@H]1CO[C@@H](OCC[C@@H](CC[C@@H](C)[C@H]2[C@@H](O)[C@@H](O)[C@@H]3[C@]2(C)CC[C@@H]2[C@@]4(C)CC[C@H](O)[C@H](O)[C@@H]4[C@@H](OS(=O)(=O)[O-])C[C@]23O)C(C)C)[C@H](O)[C@H]1O.[Na+] [CERTONARDOSIDE J]	log10(CC50 at 120 h)	1.83
Cc1cn([C@H]2C[C@H](N=[N+]=[N-])[C@@H](CO)O2)c(=O)[nH]c1=O	log10(CC50 at 120 h)	0.28
CO[C@H]1[C@H](O[C@H]2[C@H](O[C@@H](CC[C@@H](C)[C@H]3C[C@@H](O)[C@H]4[C@@H]5C[C@H](O)[C@H]6[C@@H](O)[C@@H](O)CC[C@]6(C)[C@H]5CC[C@@]43C)C(C)C)O[C@H](CO)[C@@H]2O)OC[C@@H](OC)[C@@H]1O [CERTONARDOSIDE I]	log10(CC50 at 120 h)	1.63
CO[C@H]1[C@H](O[C@H]2[C@H](O[C@@H](CC[C@@H](C)[C@H]3C[C@@H](O)[C@@H]4[C@]3(C)CC[C@@H]3[C@@]5(C)CC[C@H](O)[C@H](O)[C@@H]5[C@@H](O)C[C@]34O)C(C)C)O[C@H](CO)[C@@H]2O)OC[C@@H](OC)[C@@H]1O [CERTONARDOSIDE F]	log10(CC50 at 120 h)	1.60
Nc1ccn([C@H]2CC[C@@H](CO)O2)c(=O)n1	log10(CC50 at 120 h)	1.04
C=C(CC[C@@H](C)[C@H]1C[C@@H](O)[C@@H]2[C@]1(C)CC[C@@H]1[C@@]3(C)CC[C@H](O)C[C@@H]3[C@@H](O)C[C@]12O)C(C)CO[C@@H]1OC[C@@H](O)[C@H](OS(=O)(=O)[O-])[C@H]1O[C@@H]1OC[C@@H](O)[C@H](O)[C@H]1OC.[Na+] (stereo not given in full) [CERTONARDOSIDE C]	log10(CC50 at 120 h)	0.15
C=C(CC[C@@H](C)[C@H]1C[C@@H](O)[C@@H]2[C@]1(C)CC[C@@H]1[C@@]3(C)CC[C@H](O)[C@H](O)[C@@H]3[C@@H](O)C[C@]12O)C(C)CO[C@@H]1OC[C@@H](O)[C@H](OS(=O)(=O)[O-])[C@H]1O[C@@H]1OC[C@@H](O)[C@H](O)[C@H]1OC.[Na+] (stereo not given in full) [CERTONARDOSIDE A]	log10(CC50 at 120 h)	0.83

====

Measured CC50 at 48 h accompanies every entry in the list below.
- ASSAY OVERVIEW: Cytotoxicity against human HeLa cells after 2 days by MTT assay
- Assay type: cell-based

COMPOUND	CC50 at 48 h [µg/mL]
CO[C@@H]1CO[C@@H](OCC[C@@H](CC[C@@H](C)[C@H]2[C@@H](O)[C@@H](O)[C@H]3[C@@H]4C[C@H](OS(=O)(=O)[O-])[C@H]5[C@@H](O)[C@@H](O)CC[C@]5(C)[C@H]4CC[C@]23C)C(C)C)[C@H](O)[C@H]1O.[Na+] [CERTONARDOSIDE K]	57.9
CO[C@@H]1CO[C@@H](OCC[C@@H](CC[C@@H](C)[C@H]2[C@@H](O)[C@@H](O)[C@@H]3[C@]2(C)CC[C@@H]2[C@@]4(C)CC[C@H](O)[C@H](O)[C@@H]4[C@@H](OS(=O)(=O)[O-])C[C@]23O)C(C)C)[C@H](O)[C@H]1O.[Na+] [CERTONARDOSIDE J]	58.8

====

- Test system: Vesicular stomatitis Indiana virus
- ASSAY OVERVIEW: Antiviral activity against Vesicular stomatitis Indiana virus infected in human HeLa assessed as inhibition of virus-induced cytopathic effect after 2 days by MTT assay
- Type: functional, organism-based
- CONDITION DETAILS: 48 h

COMPOUND	MEASURED ON	EC50
CO[C@H]1[C@H](O[C@H]2[C@H](O[C@@H](CC[C@@H](C)[C@H]3C[C@@H](O)[C@H]4[C@@H]5C[C@H](O)[C@H]6[C@@H](O)[C@@H](O)CC[C@]6(C)[C@H]5CC[C@@]43C)C(C)C)O[C@H](CO)[C@@H]2O)OC[C@@H](OC)[C@@H]1O [CERTONARDOSIDE I]	Vesicular stomatitis Indiana virus	> 59.9 µg/mL
CO[C@@H]1CO[C@@H](OCC[C@@H](CC[C@@H](C)[C@H]2[C@@H](O)[C@@H](O)[C@H]3[C@@H]4C[C@H](OS(=O)(=O)[O-])[C@H]5[C@@H](O)[C@@H](O)CC[C@]5(C)[C@H]4CC[C@]23C)C(C)C)[C@H](O)[C@H]1O.[Na+] [CERTONARDOSIDE K]	Vesicular stomatitis Indiana virus	> 57.9 µg/mL
CO[C@H]1[C@H](O[C@H]2[C@H](OC[C@@H](C)[C@H](C)/C=C/[C@@H](C)[C@H]3C[C@@H](O)[C@@H]4[C@]3(C)CC[C@@H]3[C@@]5(C)CC[C@H](O)[C@H](O)[C@@H]5[C@@H](O)C[C@]34O)OC[C@@H](O)[C@@H]2OS(=O)(=O)[O-])OC[C@@H](O)[C@@H]1O.[Na+] [CERTONARDOSIDE D]	Vesicular stomatitis Indiana virus	> 100 µg/mL

====

- ASSAY OVERVIEW: Cytotoxicity against human MT4 cells after 5 days by MTT assay
- Assay type: cell-based

COMPOUND	CC50 at 120 h
O=c1[nH]cnc2c1ncn2[C@H]1CC[C@@H](CO)O1	> 100 µg/mL
CO[C@H]1[C@H](O[C@H]2[C@H](O[C@@H](CC[C@@H](C)[C@H]3C[C@@H](O)[C@@H]4[C@]3(C)CC[C@@H]3[C@@]5(C)CC[C@H](O)[C@H](O)[C@@H]5[C@@H](OS(=O)(=O)[O-])C[C@]34O)C(C)C)O[C@H](CO)[C@@H]2O)OC[C@@H](OC)[C@@H]1O.[Na+] [CERTONARDOSIDE G]	> 100 µg/mL
CO[C@@H]1CO[C@@H](OCC[C@@H](CC[C@@H](C)[C@H]2[C@@H](O)[C@@H](O)[C@H]3[C@@H]4C[C@H](OS(=O)(=O)[O-])[C@H]5[C@@H](O)[C@@H](O)CC[C@]5(C)[C@H]4CC[C@]23C)C(C)C)[C@H](O)[C@H]1O.[Na+] [CERTONARDOSIDE K]	> 100 µg/mL
